molecular target: AII receptor; assay: Angiotensin II receptor binding (displacement of 3H-AII from rat adrenal cortical microsomes); settings: 50% displacement of specifically bound 3H-AII (2 nM), 1 hour, room temperature
metric-name: IC50 (nM)
Lab book: enter the figure in nM, no units written.

Query: So what does the record say about IC50 for `CCc1nnc(COC)n1Cc1ccc(-c2ccccc2C(=O)O)cc1` ?
Response: 5000

Query: Try this molecule too: `CCCCc1cnnn1Cc1ccc(-c2ccccc2C(=O)O)cc1`
Response: 1000

Query: For `CCCCc1nnc(COC)n1Cc1ccc(-c2ccccc2C(=O)O)cc1` then?
Response: 820

---

Target: AII receptor
Experiment: Angiotensin II receptor binding (displacement of 3H-AII from rat adrenal cortical microsomes)
Details: 50% displacement of specifically bound 3H-AII (2 nM), 1 hour, room temperature
Experimental: The hormone angiotensin II (AII) produces numerous biological responses (e.g. vasoconstriction) through stimulation of its receptors on cell membranes. […] The reaction mixture contained rat adrenal cortical microsomes (source of AII receptor) in Tris buffer and 2 nM of ^3 H-AII with or without potential AII antagonist. […] Receptor-bound ^3 H-AII trapped in filter was quantitated by scintillation counting.
Could you please report measured pIC50 for the items listed next?
Here pIC50 is given on a logarithmic scale as minus log10 of the concentration in mol/L.

Query: Please give the measured pIC50 for this compound: `CCCc1cc(C(=O)O)nn1Cc1ccc(-c2ccccc2C(=O)O)cc1`
Response: 5.02

Query: `CCCc1cc(CO)nn1Cc1ccc(-c2ccccc2C(=O)O)cc1` , same question.
Response: 5.64

Query: Proceed to `CCCCc1cc(COC)nn1Cc1ccc(-c2ccccc2C(=O)O)cc1`
Response: 6.54

Query: Repeat with `CCCCc1nnc(CCCC)n1Cc1ccc(-c2ccccc2C(=O)O)cc1`
Response: 6.09

Query: Now consider `CCCCc1cn(Cc2ccc(-c3ccccc3-c3nn[nH]n3)cc2)nn1` and answer again.
Response: 5.22

Query: Next compound up: `CCCCc1cnnn1Cc1ccc(-c2ccccc2-c2nn[nH]n2)cc1`
Response: 6.52

Query: Also need `C=CCCc1cc(COC)nn1Cc1ccc(-c2ccccc2C(=O)O)cc1` , thanks.
Response: 6.14
